# Tested on: ACHN
# experiment_description: NCI tumour cell line growth inhibition, 48 h
The source made the active and inactive calls. Rule as the data show it: active = GI50 up to about 1.1 µM and inactive = higher.
Select the correct class. Options are active, inactive and nothing else.

# molecule, answer_label
data = [
    ("Cc1ccc(/C=C2\\CN(C)CC3C2=NC(=S)NC3c2ccc(C)cc2)cc1 (stereo unspecified)", "inactive"),
    ("CC1=CC(=O)C(=C(C)C)CC1", "inactive"),
]

For this molecule, state the assay outcome: CC(=O)OCc1nc(C#N)c(N)o1 inactive

For this molecule, state the assay outcome: COc1ccc2c(c1)CC[C@@H]1[C@@H]2CC[C@]2(C)/C(=N/OCCN3CCCC3)CC[C@@H]12 inactive

For this molecule, state the assay outcome: O=C(c1ccccc1)c1c(-c2ccccc2)n(-c2ccccc2)[nH]c(=O)c1=O inactive

For this molecule, state the assay outcome: COC(=O)C1=C(O)C(C(=O)OC)[C@@]2(O)[C@@H](C(=O)OC)C(c3ccc(OC(=O)/C(=C/c4ccccc4)c4ccccc4)cc3)C[C@@H]1[C@@H]2C(=O)OC (stereo partly specified) inactive

For this molecule, state the assay outcome: COc1ccccc1NS(=O)(=O)c1cc(C(C)(C)C)ccc1OCCOc1ccc(C(C)(C)C)cc1S(=O)(=O)Nc1ccccc1OC inactive

For this molecule, state the assay outcome: O=C(C1OC1c1ccc([N+](=O)[O-])cc1)C12CC3CC(CC(C3)C1)C2 (stereo unspecified) inactive

For this molecule, state the assay outcome: CC[C@@H](C)[C@H]([C@H](CC(=O)N1CCC[C@@H]1[C@@H](OC)[C@H](C)C(=O)N[C@H](Cc1ccccc1)c1nccs1)OC)N(C)C(=O)[C@H](NC(=O)[C@@H](C(C)C)N(C)C)C(C)C active

For this molecule, state the assay outcome: COC(=O)/C(C)=C/[N+](=O)[O-] inactive

For this molecule, state the assay outcome: O=C1/C(=C/c2cccc([N+](=O)[O-])c2)N=C(c2ccccc2)N1c1nc2ccc(Sc3ccccc3)cc2[nH]1 inactive

For this molecule, state the assay outcome: O=c1[nH]c(=O)n(C2CC(O)C(CO)O2)cc1C#Cc1ccc(C(F)(F)F)cc1 (stereo unspecified) inactive

For this molecule, state the assay outcome: CN(C)CCNc1ccc2c(=O)n(CCN(C)C)c(=O)n3c4ccccc4c(=O)c1c23 active

For this molecule, state the assay outcome: CN(CC(=O)O)Cc1oc(CO)cc(=O)c1O inactive

For this molecule, state the assay outcome: CN(C)CCNc1ccc(CO)c2sc3ccc(O)cc3c(=O)c12 active
